Measured kon by item
# measurement-target: T1, recombinant human VEGF165 (human, UniProt P15692 27-191)
# T1 construct: mature; Isoform VEGF165 of the entry; also called hVEGF165; hVEGF
# T1 sequence (P15692 other isoform, or with tags, fused parts or gaps): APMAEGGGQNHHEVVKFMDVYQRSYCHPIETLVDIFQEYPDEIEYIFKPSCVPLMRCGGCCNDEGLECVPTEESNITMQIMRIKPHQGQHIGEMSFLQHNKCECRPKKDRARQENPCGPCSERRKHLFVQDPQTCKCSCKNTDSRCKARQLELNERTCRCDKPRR
# measurement-protocol: Biacore SPR, VEGF immobilized, pH 5
The reply should contain only the number, in M⁻¹ s⁻¹.

610-min (scFv, VL and VH tied by name; also called Protein Nr) scFv: EIVMTQSPSTLSASVGDRVIITCQASQSISSWLSWYQQKPGKAPKLLIYQASTLASGVPSRFSGSGSGAEFTLTISSLQPDDFATYYCQNNYGFRSYGGAFGQGTKLTVLGGGGGSGGGGSGGGGSGGGGSEVQLVESGGGLVQPGGSLRLSCAASGIDFSGAYYMGWVRQAPGKGLEWVSYIDYDGDRYYASWAKGRFTISRDNSKNTLYLQMNSLRAEDTAVYYCAKSDYSSGWGTDIWGQGTLVTVSS | 251000

// switching to the query binder
Recorded kon (binder 578-max (scFv, also called EP578max; #821) scFv: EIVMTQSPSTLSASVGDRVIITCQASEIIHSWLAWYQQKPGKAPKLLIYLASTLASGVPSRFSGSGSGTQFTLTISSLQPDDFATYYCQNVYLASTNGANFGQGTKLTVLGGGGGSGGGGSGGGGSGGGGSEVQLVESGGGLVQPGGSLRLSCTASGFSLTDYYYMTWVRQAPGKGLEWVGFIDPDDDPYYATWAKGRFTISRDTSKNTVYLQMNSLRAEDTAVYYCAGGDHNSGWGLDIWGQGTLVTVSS ): 700000
